Target: UniProtKB P00730
Sequence (P00730 whole entry): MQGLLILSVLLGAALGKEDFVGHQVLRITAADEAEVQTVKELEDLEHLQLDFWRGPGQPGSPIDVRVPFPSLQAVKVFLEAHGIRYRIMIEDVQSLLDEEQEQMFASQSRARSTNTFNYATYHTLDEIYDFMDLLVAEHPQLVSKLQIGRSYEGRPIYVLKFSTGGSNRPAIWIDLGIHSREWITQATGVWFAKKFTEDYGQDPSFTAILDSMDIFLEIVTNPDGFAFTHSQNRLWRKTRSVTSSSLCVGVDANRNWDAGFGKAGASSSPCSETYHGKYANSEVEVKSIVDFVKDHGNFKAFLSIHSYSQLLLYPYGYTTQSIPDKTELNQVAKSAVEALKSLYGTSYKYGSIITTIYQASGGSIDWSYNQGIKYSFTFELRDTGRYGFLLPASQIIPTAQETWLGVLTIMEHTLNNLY
Assay endpoint: Ki (µM)

1. Cc1ccccc1-c1nnc(SCC(=O)c2ccccc2F)o1 : 39.3

P: NC(=O)CSc1nnc(-c2cccs2)n1Cc1ccccc1
Q: COc1ccc(C(=O)Cn2nnc(-c3ccccc3NC(=O)C3CC3)n2)cc1
Record comparison, field Ki: mark the lower of P and Q . Select an item and report its label.
Q
